Assignment: determine reported IC50 for the given compounds.
- target_entity: UniProt:P00746
- Sequence (P00746 26-253): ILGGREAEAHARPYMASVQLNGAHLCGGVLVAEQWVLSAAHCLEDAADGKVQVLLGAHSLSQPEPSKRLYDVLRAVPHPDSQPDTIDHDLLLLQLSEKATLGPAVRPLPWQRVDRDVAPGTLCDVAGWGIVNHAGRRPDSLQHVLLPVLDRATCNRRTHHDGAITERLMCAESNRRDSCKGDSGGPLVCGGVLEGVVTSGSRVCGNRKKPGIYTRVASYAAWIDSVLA
- assay_info: Human Factor D Assay
- Assay type: biochemical
- measurement_conditions: Table 5; Human Factor D 80 nM, substrate Z-L-Lys-SBzl; read-out: IC50 (Stars)

compound="CC(=O)c1nn(CC(=O)N2[C@H](C(=O)Nc3nc(Br)ccc3C)C[C@@]3(C)C[C@@H]23)c2ccc(NC(=O)C3CCCC3(F)F)cc12 (stereo partly drawn) [Compound T-27]" property_name=IC50 test_value="< 1000 nM"
compound="NC(=O)c1cc(C(F)(F)F)n(CC(=O)N2C[C@H](F)C[C@H]2C(=O)Nc2cccc(Br)n2)n1 [Compound T-15]" property_name=IC50 test_value="< 1000 nM"
compound="CC(=O)c1nn(CC(=O)N2[C@H](C(=O)Nc3nc(Br)ccc3C)C[C@@]3(CNC(=O)CC(F)(F)F)C[C@@H]23)c2c(C)cccc12 [Compound T-35]" property_name=IC50 test_value="< 1000 nM"
compound="CC(=O)c1nn(CC(=O)N2C[C@H](F)C[C@H]2C(=O)Nc2cccc(Br)n2)c2cc(S(C)(=O)=NC#N)ccc12 (stereo partly drawn) [Compound T-11]" property_name=IC50 test_value="< 1000 nM"
compound="CC(=O)c1nn(CC(=O)N2[C@H](C(=O)Nc3nc(Br)ccc3C)C[C@@]3(C)C[C@@H]23)c2ccc(OC(=O)NC3CC3)cc12 [Compound T-32]" property_name=IC50 test_value="< 1000 nM"

Alright, here's another compound for you.
Data request: Give the reported value of IC50 for this record: CC(=O)c1cn(CC(=O)N2C[C@H](F)C[C@H]2C(=O)Nc2cccc(Br)n2)c(C)n1 [Compound T-20]
Data returned: > 10000 nM
